Data origin: patent US20220370451A1

Assay: Compound cytotoxicity, XTT-based colorimetric assay
Type: cell-based
Conditions: human; uninfected MT2 cells, day 4, XTT
METRIC: CC50 at 4 days

MOLECULE | METRIC | EXPERIMENTAL VALUE
CC(C)(C(=O)N[C@@H](Cc1cc(F)cc(F)c1)c1nc2nc(-c3ccccc3F)ccc2c(=O)n1-c1ccc(Cl)c2c(NS(=O)(=O)C3CC3)nn(CC(F)F)c12)n1ccc(C2CC2)n1 (atropisomer, axis not shown; (P)) [Example 21] | CC50 at 4 days | > 0.5 µM

Next up:
# molecule Cc1nccnc1-c1ccc2c(=O)n(-c3ccc(Cl)c4c(NS(C)(=O)=O)nn(C)c34)c([C@H](Cc3cc(F)cc(F)c3)NC(=O)Cn3nc(C(F)(F)F)cc3C)nc2c1 (atropisomer, axis not shown; (P)) [Example 12] ; its CC50 at 4 days = > 0.5 µM
